# Tested On: HU of Acinetobacter baumannii (Acinetobacter baumannii)
# Assay Overview: ITC
pKd: −log10 of the molar value.
Observed Property: pKd

>>> result_number("Gp46 from bacteriophage SPO1 (natural protein) MMTEDQKFKYLTKIEELEAGCFSDWTKEDITGDLKYLKKGIIEESIELIRAVNGLTYSEELHDFTQEIIEELDISPL")
6.52
